Tested on: Vero E6
Assay: cell viability relative to DMSO; higher = less toxic
Conditions: 72 h; 1000 nM
Answer each item with its documented cell viability.
Write your answer as a measured quantity: the number, then the unit.

For each of the molecules below, state cell viability.
1. CC(=O)[C@H]1CC[C@H]2[C@@H]3CC[C@H]4C[C@](C)(O)CC[C@]4(C)[C@H]3CC[C@]12C
2. CC(C)=CCC[C@](C)(O)[C@@H]1CC=C(C)CC1

Output:
1. 95.7%
2. 98.8%

====

Answer each item with its documented cell viability.
Test system: HepG2
Assay: cell viability relative to DMSO; higher = less toxic
Conditions: 72 h; 1 nM
Give bare numbers, in %.

For each of the compounds below, state cell viability.
1. c1cc2c(cc1[C@H]1OC[C@H]3[C@@H]1CO[C@@H]3c1ccc3c(c1)OCO3)OCO2
2. CCCCCn1cc(C(=O)NC23CC4CC(CC(C4)C2)C3)c(=O)c2cc(-c3ccccc3)ccc21
3. CCC(=O)O[C@]1(C(=O)COC(C)=O)CC[C@H]2[C@@H]3C[C@H](C)C4=CC(=O)C=C[C@]4(C)[C@H]3[C@@H](O)C[C@@]21C [methylprednisolone-aceponate]
4. N#CC(Cc1ccc(O)cc1)c1ccc(O)cc1 (centres undefined)

Output:
105
103
92.1
98.7

====

Test system: Calu-3
Test: cell viability relative to DMSO; higher = less toxic
Conditions: 72 h; 1000 nM
Reported metric: cell viability (%)
One number for each entry, in %.

Worked set:
>  <Molecule>
O=C1Nc2ccccc2/C1=C1/Nc2ccccc2C1=O

>  <cell viability (%)>
93.1

$$$$
>  <Molecule>
CSc1nc(NC2CCCC2)c([N+](=O)[O-])c(NC2CCCC2)n1

>  <cell viability (%)>
96.9

$$$$

For each of the molecules below, state cell viability.
1. CN1CCc2cc(Cl)c(O)cc2[C@@H](c2ccccc2)C1
2. O=C(CN1CCN(C(=O)c2ccco2)CC1)Nc1cc(C(F)(F)F)ccc1Cl
3. N#Cc1ccc(NCCNCC(=O)N2CCC[C@H]2C#N)nc1
4. CCOc1ccc(C[C@H]2NC(=O)CCSSC[C@@H](C(=O)N3CCC[C@H]3C(=O)N[C@@H](CCCN)C(=O)NCC(N)=O)NC(=O)[C@H](CC(N)=O)NC(=O)[C@H]([C@@H](C)O)NC(=O)[C@H]([C@@H](C)CC)NC2=O)cc1
5. O=C(O)c1cc(O)c2c(c1)[C@H]([C@H]1c3cc(C(=O)O)cc(O)c3C(=O)c3c(O[C@@H]4O[C@H](CO)[C@@H](O)[C@H](O)[C@H]4O)cccc31)c1cccc(O[C@@H]3O[C@H](CO)[C@@H](O)[C@H](O)[C@H]3O)c1C2=O [sennoside-A]
6. O=C(/C=C/c1c(C(=O)O)[nH]c2cc(Cl)cc(Cl)c12)Nc1ccccc1

Output:
1. 103
2. 104
3. 104
4. 118
5. 91
6. 99.2

====

System: HepG2
Assay: cell viability relative to DMSO; higher = less toxic
Conditions: 72 h; 10 nM
Answer each item with its documented cell viability.
Give bare numbers, in %.

Worked set:
>  <Compound>
N#CC(Cc1ccc(O)cc1)c1ccc(O)cc1 (stereo not drawn)

>  <cell viability / %>
90.3

$$$$
>  <Compound>
C[C@@H]1O[C@@H](O[C@H]2[C@H](Oc3cc(O)c4c(c3)O[C@H](c3ccc(O)cc3)CC4=O)O[C@H](CO)[C@@H](O)[C@@H]2O)[C@H](O)[C@H](O)[C@H]1O [Naringin (Naringoside)]

>  <cell viability / %>
112

$$$$
>  <Compound>
NCCCCCCCCCCNS(=O)(=O)c1cccc2c(Cl)cccc12

>  <cell viability / %>
102

$$$$
>  <Compound>
CCCCCCCCCCCCCCCC(=O)C(F)(F)F

>  <cell viability / %>
108

$$$$
>  <Compound>
CCCc1ccc(C(=O)O)cc1

>  <cell viability / %>
106

$$$$

For each of the compounds below, state cell viability.
1. Nc1ccc(-c2ccc3ncc4ccc(=O)n(-c5cccc(C(F)(F)F)c5)c4c3c2)cn1
2. CNc1cc(OC)c(C(=O)NC2CCN(Cc3ccccc3)C2C)cc1Cl (stereo not drawn) [nemonapride]
3. O=C1c2ccccc2C(Cc2ccnc(F)c2)(Cc2ccnc(F)c2)c2ccccc21

Output:
81.6
96.1
100

====

Test system: Vero E6
Assay: cell viability relative to DMSO; higher = less toxic
Settings: 72 h; 100 nM
Answer each item with its documented cell viability.
One number for each entry, in %.

Worked set:
>  <Molecule>
O=c1n(CC2CO2)c(=O)n(CC2CO2)c(=O)n1CC1CO1 (centres undefined)

>  <Units label>
%

>  <cell viability>
98.5

$$$$
>  <Molecule>
CC(=O)c1ccc(S(=O)(=O)NC(=O)NC2CCCCC2)cc1 [acetohexamide]

>  <Units label>
%

>  <cell viability>
97.1

$$$$
>  <Molecule>
CCCCCS(=O)(=O)CCCCCCCCCCn1c(-c2ccc(O)cc2)c(C)c2cc(O)ccc21

>  <Units label>
%

>  <cell viability>
100

$$$$
>  <Molecule>
C=C[C@]1(C)CC[C@@H](C(=C)C)C[C@H]1C(=C)C

>  <Units label>
%

>  <cell viability>
95.7

$$$$
>  <Molecule>
COc1ccc(C(=O)/C(Cc2cc(OC)c(OC)c(OC)c2)=C(\C(=O)O)c2ccc3c(c2)OCO3)cc1

>  <Units label>
%

>  <cell viability>
104

$$$$

For each of the molecules below, state cell viability.
1. S=C(NC1CCCCC1)N1CCC(c2cnc[nH]2)CC1 [thioperamide]
2. CC[C@]1(O)C[C@@H]2CN(CCc3c([nH]c4ccccc34)[C@@](C(=O)OC)(c3cc4c(cc3OC)N(C)[C@H]3[C@@](O)(C(=O)OC)[C@H](OC(C)=O)[C@]5(CC)C=CCN6CC[C@]43[C@@H]65)C2)C1 [Vinblastine (sulfate)]
3. N#Cc1cccc(-c2nc(-c3cccnc3)no2)c1
4. CN1CCc2cc3c(cc2[C@H]1[C@@H]1OC(=O)c2c1ccc1c2OCO1)OCO3 [bicuculline-(+)]

Output:
[96.5, 48.8, 101, 94.7]

====

Test system: Vero E6
Experiment: cell viability relative to DMSO; higher = less toxic
Details: 72 h; 1 nM
Reported metric: cell viability
Write your answer as a measured quantity: the number, then the unit.

>  <Compound>
CC(C)NC(=O)N1CC[C@H](NC2=Nc3cc(F)ccc3N(CC(F)F)c3ccc(Cl)cc32)C1

>  <Value reported>
99.8%

$$$$
>  <Compound>
O=C(CN1CCN(C(=O)c2ccco2)CC1)Nc1cc(C(F)(F)F)ccc1Cl

>  <Value reported>
98.4%

$$$$
>  <Compound>
CN1Cc2c(C(=O)OC(C)(C)C)ncn2-c2ccsc2C1=O

>  <Value reported>
101%

$$$$

For each of the compounds below, state cell viability.
1. NC(=O)CN1CC(O)CC1=O (stereo not given)
2. CC1(C)OC(=O)C(OCC2CC2)=C1c1ccc(S(C)(=O)=O)cc1

Output:
1. 98.1%
2. 100%

====

Answer each item with its documented cell viability.
Tested on: Calu-3
Experiment: cell viability relative to DMSO; higher = less toxic
Conditions: 72 h; 1 nM
Give bare numbers, in %.

Worked set:
>  <Compound>
OC(c1ccccc1)(c1ccccc1)C1CCNCC1

>  <Units label>
%

>  <Value reported>
88.6

$$$$
>  <Compound>
NC(=O)c1cccc(-c2cc(Nc3ccc(OC(F)(F)F)cc3)ncn2)c1

>  <Units label>
%

>  <Value reported>
104

$$$$
>  <Compound>
O=C1c2ccccc2C(Cc2ccnc(F)c2)(Cc2ccnc(F)c2)c2ccccc21

>  <Units label>
%

>  <Value reported>
103

$$$$
>  <Compound>
O=S(=O)(Cc1ccccc1)Nc1ccc(-c2ccc3c(cnn3-c3ccc(F)cc3)c2)c(C(F)(F)F)c1

>  <Units label>
%

>  <Value reported>
103

$$$$
>  <Compound>
COC(=O)c1ccc(N2CCN(C)CC2)c(NC(=O)c2cccc(OC)c2)c1

>  <Units label>
%

>  <Value reported>
98.9

$$$$
>  <Compound>
OC[C@H]1O[C@@H](c2ccc(Cl)c(Cc3ccc(O[C@H]4CCOC4)cc3)c2)[C@H](O)[C@@H](O)[C@@H]1O

>  <Units label>
%

>  <Value reported>
87.9

$$$$

For each of the compounds below, state cell viability.
1. CCCNC(C)C(=O)Nc1ccccc1C (centres undefined)
2. O=C1C2CCN(CC2)C1(CO)CO
3. N[C@@H](Cc1ccc(O)cc1)C(=O)NCC(=O)NCC(=O)O

Output:
1: 89; 2: 105; 3: 102

====

Answer each item with its documented cell viability.
Test system: Caco-2
Assay: cell viability relative to DMSO; higher = less toxic
Conditions: 72 h; 1000 nM
One number for each entry, in %.

Worked set:
>  <Molecule>
O=C(O)CCCc1c[nH]c2ccccc12

>  <Units label>
%

>  <cell viability>
92.5

$$$$
>  <Molecule>
O=C(Nc1cccc(Cl)c1)Nc1ncc(CCNc2ncnc3ccsc23)s1

>  <Units label>
%

>  <cell viability>
85.8

$$$$
>  <Molecule>
Clc1cccc(SC2CCNCC2)n1

>  <Units label>
%

>  <cell viability>
100

$$$$
>  <Molecule>
C=C[C@]1(C)CC[C@@H](C(=C)C)C[C@H]1C(=C)C

>  <Units label>
%

>  <cell viability>
92.6

$$$$
>  <Molecule>
c1cnc2cc3c(cc2n1)[C@@H]1CNC[C@H]3C1

>  <Units label>
%

>  <cell viability>
93.1

$$$$

For each of the molecules below, state cell viability.
1. O=C1COc2c(CCNCCN(C(=O)CCNCCc3ccc(Cl)c(Cl)c3)C3CCCCC3)ccc(O)c2N1
2. OC(c1ccccc1)(c1ccccc1)C1CCNCC1
3. C[C@H](CCC(=O)O)[C@H]1CC[C@H]2[C@@H]3C(=O)C[C@@H]4CC(=O)CC[C@]4(C)[C@H]3CC(=O)[C@]12C [dehydrocholate-acid]
4. NCCOB(c1ccccc1)c1ccccc1
5. CO[C@H]1CC[C@H](N2C(=O)CNc3ncc(-c4ccc(C(C)(C)O)nc4)nc32)CC1
6. CCN(CC)C(=O)N1CCN(C)CC1
7. Nc1ccc(-c2ccc3ncc4ccc(=O)n(-c5cccc(C(F)(F)F)c5)c4c3c2)cn1
8. O=C(c1cccc(Cl)c1F)N1CCN(Cc2cccc(Nc3nccs3)n2)CC1

Output:
97.8
102
94.2
94.3
81.9
88.5
21.7
86.5

For each of the molecules below, state cell viability.
1. C[C@H](NC(=O)Cc1cc(F)cc(F)c1)C(=O)N[C@@H]1C(=O)N(C)c2ccccc2-c2ccccc21
2. O=C(O)CCCCCCCC(=O)O
3. COc1ccc(Cc2cnc(N)nc2N)cc1OC
4. O=S(=O)(c1cccc2c(Cl)cccc12)N1CCCNCC1
5. O=c1[nH]cnc2nc[nH]c12
6. C[N+](C)(C)CC#CCN1CCCC1=O

Output:
[94.3, 105, 93, 88, 103, 107]

For each of the molecules below, state cell viability.
1. Cn1c(N2CCCCS2(=O)=O)nc(C(=O)NCc2ccc(F)cc2)c(O)c1=O
2. CCn1cc(C(=O)O)c(=O)c2ccc(-c3ccncc3)cc21
3. COc1cccc(OC)c1-c1ccc(C[C@H](NC(=O)c2c(Cl)cccc2Cl)C(=O)O)cc1
4. C=C(c1ccccc1OCc1cccc(Cl)c1)n1ccnc1
5. O=C(CN1CCN(C(=O)c2ccco2)CC1)Nc1cc(C(F)(F)F)ccc1Cl

Output:
92.7
98.6
94.4
87.8
96.1

For each of the molecules below, state cell viability.
1. C=CC(=O)Nc1cc2c(Nc3ccc(F)c(Cl)c3)ncnc2cc1OCCCN1CCOCC1
2. O=C(NCc1ccc2c(c1)OCO2)c1c(Cl)cccc1Cl
3. CCC(=O)N1CCN(c2ccc(-n3c(=O)ccc4cnc5ccc(-c6cnc7ccccc7c6)cc5c43)cc2C(F)(F)F)CC1
4. c1cc2c(cc1[C@H]1OC[C@H]3[C@@H]1CO[C@@H]3c1ccc3c(c1)OCO3)OCO2

Output:
81.5
93.1
49.4
95.7
